Measured EC50, listed per entry for reference.
Tested on: Hepatitis B virus
Experiment: Antiviral activity against HBV infected in duck primary hepatocytes
Assay type: functional, organism-based
Details: Hepatocyte

Field: example entries. Status: answers known.
CCc1cn2c(nc1=O)O[C@H]1[C@H](F)[C@H]2O[C@@H]1CO    2.5 µg/mL
O=c1ccn2c(n1)O[C@H]1C[C@H]2O[C@@H]1CO    2.5 µg/mL
Cc1cn([C@H]2C[C@@H](OS(C)(=O)=O)[C@@H](CO)O2)c(=O)[nH]c1=S    2.5 µg/mL
O=c1nc2n(cc1C(F)(F)F)[C@H]1C[C@H](O2)[C@@H](CO)O1    > 10 µg/mL

Item under review: `Cc1cn2c(nc1=O)O[C@H]1C[C@H]2O[C@@H]1CO` . Reported EC50? 10 µg/mL

Item under review: `Nc1ccn([C@@H]2CS[C@H](CO)O2)c(=O)n1` . Reported EC50? 0.05 µg/mL
